Recorded protein stability index values for a group of variants are listed next.
B1: FUNDC2 (parent)
chain: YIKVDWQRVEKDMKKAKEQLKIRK

- Variants of: B1
- Assay Remarks: protein stability index of a GFP-peptide fusion (GPS, HEK-293T) (PSI 1-6); higher = more stable;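 also: lentivirally expressed fusions sorted by FACS into six bins by GFP to DsRed ratio, PSI derived from sequencing read proportions per bin multiplied by bin number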
- Condition: c terminus: a fixed tail appended
Observed Property: protein stability index

>>> print(df.to_string())
    change  observed_value
 0     I2D            3.58
 1    R23A            2.08
 2    R23D            2.06
 3     Q7V            2.33
 4    K15N            1.88
 5    A16Y            1.98
 6     V9C            1.94
 7    I22H            1.88
 8    E10H            2.58
 9    L20S            1.52
10     I2G             3.6
11    Q19N            1.81
12    K21C            2.06
13    M13C            1.73
14     K3M            1.91
15     K3Y            3.14
16     R8N            1.79
17    K24C            2.47
18     V4L            2.23
19    K11E            2.01
20     I2L            2.26
21     K3W            2.09
22    L20A             2.3
23    K15R            1.92
24    K11G             1.2
25     K3E             2.4
26     D5C            1.03
27    R23E            1.76
28     I2M            4.03
29    I22G            1.83
30    K11F            1.64
31    M13G            2.32
32     Q7L            2.01
33    K24Q            1.31
34    K11S            1.97
35    E18D            1.44
36    K15V            2.39
37    K14I            1.67
38     V4Q            1.83
39    Q19Y             1.8
40     I2P            2.54
41    K24M            1.31
42    K11P             2.5
43    D12L             2.8
44    E18Q            1.99
45    K11A            2.37
